# credit: ChEMBL document CHEMBL1129745

# Tested on: Mus musculus
# experimental_protocol: Amount of drug required (mg/kg body weight/dose) to cure 50% of infected mice subjected to a lethal systemic infection with Staphylococcus aureus UC 9213
# Format: functional
Rule for this label: Satisfied means ED50 is less than 8 mg/kg; Not satisfied means ED50 is at least 8 mg/kg.

The examples below pair each entry with its known result.
compound: CC(=O)NC[C@H]1CN(c2ccc(C(C)=O)cc2)C(=O)O1 (racemic)
target_system: Mus musculus
assigned_class: Not satisfied

compound: C=CCNc1cccc(-c2ccc(N3CC(CNC(C)=O)OC3=O)cc2)cc1=O (configuration not stated)
target_system: Mus musculus
assigned_class: Not satisfied

compound: C/N=c1\ccc(-c2ccc(N3CC(CNC(C)=O)OC3=O)cc2)ccc1O (configuration not stated)
target_system: Mus musculus
assigned_class: Satisfied

**Query** Determine whether this compound shows ED50 lower than 8 mg/kg (ties excluded): COc1cc(-c2ccc(N3CC(CNC(C)=O)OC3=O)cc2)cccc1=O (configuration not stated)
**Result** Not satisfied

**Query** Determine whether this compound shows ED50 lower than 8 mg/kg (ties excluded): C=CCNc1ccc(-c2ccc(N3CC(CNC(C)=O)OC3=O)cc2)ccc1=O (configuration not stated)
**Result** Not satisfied

**Query** Determine whether this compound shows ED50 lower than 8 mg/kg (ties excluded): C#CCNc1cccc(-c2ccc(N3CC(CNC(C)=O)OC3=O)cc2)cc1=O (configuration not stated)
**Result** Satisfied

---

# Test system: Staphylococcus aureus
# experimental_protocol: Compound was tested in vitro for antibacterial activity against methicillin-susceptible Staphylococcus aureus UC 9213.
# Type: functional
assay_readout: MIC (µg/mL)
# number only, unit µg/mL dropped from output

For orientation, consider the following solved cases.
compound: CC(=O)NCC1CN(c2ccc(-c3ccc(N4CCOCC4)c(=O)cc3)cc2)C(=O)O1 (stereo not given)
MIC / µg/mL: 2
//
compound: C#CCNc1cccc(-c2ccc(N3CC(CNC(C)=O)OC3=O)cc2)cc1=O (stereo not given)
MIC / µg/mL: 2
//
compound: COc1ccc(-c2ccc(N3CC(CNC(C)=O)OC3=O)cc2)ccc1=O (stereo not given)
MIC / µg/mL: 2
//
compound: C/N=c1\ccc(-c2ccc(N3CC(CNC(C)=O)OC3=O)cc2)ccc1O (stereo not given)
MIC / µg/mL: 2
//
compound: C=CCNc1ccc(-c2ccc(N3CC(CNC(C)=O)OC3=O)cc2)ccc1=O (stereo not given)
MIC / µg/mL: 2
//
compound: COc1cccc(-c2ccc(N3CC(CNC(C)=O)OC3=O)cc2)cc1=O (stereo not given)
MIC / µg/mL: 4
//
compound: C=CCNc1cccc(-c2ccc(N3CC(CNC(C)=O)OC3=O)cc2)cc1=O (stereo not given)
MIC / µg/mL: 2
//
compound: CC(=O)NC[C@H]1CN(c2ccc(C(C)=O)cc2)C(=O)O1 (racemic) [DUP-721]
MIC / µg/mL: 8
//
compound: C=CCOc1ccc(-c2ccc(N3CC(CNC(C)=O)OC3=O)cc2)ccc1=O (stereo not given)
MIC / µg/mL: 4

# next compound below
**Query** For COc1cc(-c2ccc(N3CC(CNC(C)=O)OC3=O)cc2)cccc1=O (stereo not given) , write its MIC.
**Result** 64
